viability, T/C reference
Test system: NCI-H211 complex spheroid viability
Test: Anticancer human tumor NCI-H211 cell line growth inhibition [LSD1];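 note: luminescent viability read after seven days of drug exposure; 100% = DMSO vehicle control viability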
Details: second compound 3.16 µM; first compound 0.003 µM; hits give low values

{"COMPOUND": "Nc1ncn(C2CC(O)C(CO)S2)c(=O)n1 (stereo unspecified) + NC1CC1c1ccc(-c2cccc(O)c2)cc1", "TESTED SYSTEM": "NCI-H211 complex spheroid viability", "viability, T/C": "15.9%"}
{"COMPOUND": "Nc1ncn(C2CC(O)C(CO)S2)c(=O)n1 (stereo unspecified) + NC1CCC(NC2CC2c2ccccc2)CC1", "TESTED SYSTEM": "NCI-H211 complex spheroid viability", "viability, T/C": "23.7%"}
{"COMPOUND": "CCc1c2c(nc3ccc(O)cc13)-c1cc3c(c(=O)n1C2)COC(=O)[C@]3(O)CC + NC1CC1c1ccc(-c2cccc(O)c2)cc1", "TESTED SYSTEM": "NCI-H211 complex spheroid viability", "viability, T/C": "1.57%"}
{"COMPOUND": "Nc1ccn(C2OC(CO)C(O)C2(F)F)c(=O)n1 (stereo unspecified) + NC1CC1c1ccc(-c2cccc(O)c2)cc1", "TESTED SYSTEM": "NCI-H211 complex spheroid viability", "viability, T/C": "4.54%"}
{"COMPOUND": "Nc1ccn(C2OC(CO)C(O)C2(F)F)c(=O)n1 (stereo unspecified) + NC1CCC(NC2CC2c2ccccc2)CC1", "TESTED SYSTEM": "NCI-H211 complex spheroid viability", "viability, T/C": "3.05%"}
{"COMPOUND": "CCc1c2c(nc3ccc(O)cc13)-c1cc3c(c(=O)n1C2)COC(=O)[C@]3(O)CC + NC1CCC(NC2CC2c2ccccc2)CC1", "TESTED SYSTEM": "NCI-H211 complex spheroid viability", "viability, T/C": "0.56%"}
